These data points were gathered from patent US20230357240A1.

This section presents compounds with their documented inhibition at 0.37 µM values.
Biological target: hERG (Homo sapiens)
Construct: expressed in transfected cells; host or cells: HEK293 cells stably expressing hERG
Sequence (Q12809 whole entry): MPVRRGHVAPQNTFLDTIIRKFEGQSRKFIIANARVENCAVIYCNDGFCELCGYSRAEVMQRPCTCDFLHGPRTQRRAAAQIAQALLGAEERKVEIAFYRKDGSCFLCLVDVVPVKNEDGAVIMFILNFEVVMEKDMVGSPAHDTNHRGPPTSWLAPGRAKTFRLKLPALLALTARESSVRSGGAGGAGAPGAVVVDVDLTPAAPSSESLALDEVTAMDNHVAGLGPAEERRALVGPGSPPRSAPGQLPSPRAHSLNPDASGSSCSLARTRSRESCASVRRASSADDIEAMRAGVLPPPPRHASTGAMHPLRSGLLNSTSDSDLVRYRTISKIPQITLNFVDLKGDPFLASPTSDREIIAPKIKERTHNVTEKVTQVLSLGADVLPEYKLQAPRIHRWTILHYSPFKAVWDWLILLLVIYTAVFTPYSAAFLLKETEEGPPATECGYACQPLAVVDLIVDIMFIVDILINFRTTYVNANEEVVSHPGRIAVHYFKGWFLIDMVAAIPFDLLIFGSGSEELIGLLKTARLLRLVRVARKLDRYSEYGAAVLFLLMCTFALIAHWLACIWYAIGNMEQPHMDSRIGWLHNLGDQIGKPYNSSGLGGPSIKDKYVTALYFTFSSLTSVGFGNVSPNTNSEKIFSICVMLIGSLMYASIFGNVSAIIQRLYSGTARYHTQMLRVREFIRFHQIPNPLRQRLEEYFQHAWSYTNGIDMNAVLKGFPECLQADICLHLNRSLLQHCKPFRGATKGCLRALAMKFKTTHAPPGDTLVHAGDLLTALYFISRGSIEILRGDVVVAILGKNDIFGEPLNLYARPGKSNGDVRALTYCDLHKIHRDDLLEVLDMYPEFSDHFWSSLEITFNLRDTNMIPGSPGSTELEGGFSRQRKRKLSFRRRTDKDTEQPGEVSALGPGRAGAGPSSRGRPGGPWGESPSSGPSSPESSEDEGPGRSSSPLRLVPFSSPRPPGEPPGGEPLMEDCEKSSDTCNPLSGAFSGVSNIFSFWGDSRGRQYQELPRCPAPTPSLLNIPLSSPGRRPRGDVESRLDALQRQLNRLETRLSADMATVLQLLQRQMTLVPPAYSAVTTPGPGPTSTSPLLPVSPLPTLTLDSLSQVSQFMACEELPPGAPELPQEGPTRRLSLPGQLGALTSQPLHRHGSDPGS
Test: hERG inhibition test, whole-cell patch clamp in HEK293 cells stably expressing the hERG ion channel
Format: cell-based
Settings: human, HEK293 cells stably expressing the hERG ion channel, 0.37 μM; read-out: hERG Inhibition rate, Cell 1
ASSAY_READOUT: inhibition at 0.37 µM (%)

[[record]]
compound = "CCNC(=O)c1cc2c(-c3sc(C(C)(C)O)cc3N3CCc4ccccc43)cn(C)c(=O)c2[nH]1 [Compound 1]"
observed_measurement = 0.98

[[record]]
compound = "CCNC(=O)c1cc2c(-c3cc(C(C)(C)O)ccc3Oc3c(C)cc(F)cc3C)cn(C)c(=O)c2[nH]1 [ABBV-744, reference compound]"
observed_measurement = 8.24


====

Biological target: hERG (Homo sapiens)
Construct: expressed in transfected cells; host or cells: HEK293 cells stably expressing hERG
Assay: hERG inhibition test, whole-cell patch clamp in HEK293 cells stably expressing the hERG ion channel
Format: cell-based
Details: human, HEK293 cells stably expressing the hERG ion channel, 10.00 μM; read-out: Average hERG inhibition rate
ASSAY_READOUT: inhibition at 10 µM (%)

[[record]]
compound = "CCNC(=O)c1cc2c(-c3sc(C(C)(C)O)cc3N3CCc4ccccc43)cn(C)c(=O)c2[nH]1"
readout_units = "%"
observed_measurement = 21.6

[[record]]
compound = "CCNC(=O)c1cc2c(-c3cc(C(C)(C)O)ccc3Oc3c(C)cc(F)cc3C)cn(C)c(=O)c2[nH]1 [ABBV-744, reference compound]"
readout_units = "%"
observed_measurement = 87.6


====

Test: Pharmacokinetic test in SD rats (plasma drug concentration by LC/MS/MS)
Format: in vivo
Conditions: rat, po, gavage, 2 mg/kg, read-out: Time to peak Tmax
ASSAY_READOUT: Tmax (min)

[[record]]
molecule = "CCNC(=O)c1cc2c(-c3sc(C(C)(C)O)cc3N3CCc4ccccc43)cn(C)c(=O)c2[nH]1 [Compound 1]"
assay_readout = "Tmax"
observed_measurement = 17.4


====

Assay: Pharmacokinetic test in SD rats (plasma drug concentration by LC/MS/MS)
Format: in vivo
Settings: rat, iv, tail vein injection, 2 mg/kg, read-out: Time to peak Tmax
Protocol: EXAMPLE 10 Pharmacokinetic Test of the Compound of the Present Application SD rats were used as test animals. After gavage administration or tail vein injection of the compound of the present application to the rats, plasma drug concentrations were measured by the LC/MS/MS method at different moments, and pharmacokinetic features of the compound of the present application in the rats was studied. Source of SD rats: Chengdu Dashuo Experimental Animal Co., Ltd. […]
ASSAY_READOUT: Tmax

[[record]]
structure_string = "CCNC(=O)c1cc2c(-c3sc(C(C)(C)O)cc3N3CCc4ccccc43)cn(C)c(=O)c2[nH]1"
observed_measurement = "4.8 min"


====

Target: hERG (Homo sapiens)
Construct: expressed in transfected cells; host or cells: HEK293 cells stably expressing hERG
Assay: hERG inhibition test, whole-cell patch clamp in HEK293 cells stably expressing the hERG ion channel
Type: cell-based
Conditions: human, HEK293 cells stably expressing the hERG ion channel, 3.33 μM; read-out: hERG Inhibition rate, Cell 2
ASSAY_READOUT: inhibition at 3.33 µM (%)

[[record]]
compound = "CCNC(=O)c1cc2c(-c3cc(C(C)(C)O)ccc3Oc3c(C)cc(F)cc3C)cn(C)c(=O)c2[nH]1 [ABBV-744, reference compound]"
observed_measurement = 51.7

[[record]]
compound = "CCNC(=O)c1cc2c(-c3sc(C(C)(C)O)cc3N3CCc4ccccc43)cn(C)c(=O)c2[nH]1 [Compound 1]"
observed_measurement = 17.3

